- Test system: Moraxella catarrhalis
- Method Description: MIC against Gram-negative bacteria: Moraxella catarrhalis
- Type: cell-based
- Study Conditions: Moraxella catarrhalis; 96-well plate, 5×10^5 CFU/mL, 37° C., 10 h
Listed next: entries and their corresponding MIC (μg/mL) M. catarrhalis.

Substance: PRT73 (TNGQCQCKENYYKLLAQDTCLPCDCFPHGSHSRTCD; listed as Homo sapiens)
Unit String: µg/mL
MIC (μg/mL) M. catarrhalis: 50

Substance: PRT121 (CGPCFNNGVPILEGTSCRCQCRLGSLGAACE; listed as Homo sapiens)
Unit String: µg/mL
MIC (μg/mL) M. catarrhalis: 12.5

Substance: PRT1498 (PESPCLQNPCQNDGQCREQGATFTCECEVGYGGGLCM; listed as Homo sapiens)
Unit String: µg/mL
MIC (μg/mL) M. catarrhalis: 12.5

Substance: PRT40 (KGIDCSDGFNGGCEQLCLQQTLPLPYDATSSTIFMFCGCVEEYKLAPDGKSCL; listed as Homo sapiens)
Unit String: µg/mL
MIC (μg/mL) M. catarrhalis: 12.5

Substance: PRT45 (SINSCPNNCSGHGKCTTSVSVPSQVYCECDKYWKGEACD; listed as Homo sapiens)
Unit String: µg/mL
MIC (μg/mL) M. catarrhalis: 25

Substance: PRT58 (PCALGEGPACAHCAPDNSTRCGSCNPGYVLAQGLCR; listed as Homo sapiens)
Unit String: µg/mL
MIC (μg/mL) M. catarrhalis: 25

Substance: PRT89 (TNGQCHCKEFHYRPRGSDSCLPCDCYPVGSTSRSCA; listed as Homo sapiens)
Unit String: µg/mL
MIC (μg/mL) M. catarrhalis: 12.5

Substance: PRT112 (DINECTDFVDVPCSHFCNNFIGGYFCSCPPEYFLHDDMKNCG; listed as Homo sapiens)
Unit String: µg/mL
MIC (μg/mL) M. catarrhalis: 12.5

---

- Tested on: Klebsiella pneumonia
- Method Description: MIC against Gram-negative bacteria: Klebsiella pneumonia
- Assay type: cell-based
- Study Conditions: K. pneumonia; 10 h cultivation at 37° C.; 5×10^5 CFU/mL
Entries and their measured MIC (μg/mL) K. pneumonia follow.

Substance: PRT198 (CQPKTCNMRGICNNKQHCHCNHEWAPPYC; listed as Homo sapiens)
MIC (μg/mL) K. pneumonia, µg/mL: 50

Substance: PRT164 (YKDPCANVSCLNGATCDSDGLNGTCICAPGFTGEECD; listed as Homo sapiens)
MIC (μg/mL) K. pneumonia, µg/mL: 12.5

Substance: PRT827 (HLECSCHNNSTCEPATGTCRCGPGFYGQACE; listed as Homo sapiens)
MIC (μg/mL) K. pneumonia, µg/mL: 12.5

Substance: PRT255 (DVDECVGLQPVCPQGTTCINTGGSFQCVSPECPEG; listed as Homo sapiens)
MIC (μg/mL) K. pneumonia, µg/mL: 12.5

Substance: PRT263 (CSKNNGGCSPYATCKSTGDGQRTCTCDTAHTVGDGLTC; listed as Homo sapiens)
MIC (μg/mL) K. pneumonia, µg/mL: 25

Substance: PRT844 (CRCNRHSECAGVGARDHCLLCRNHTKGSHCEQCLPLFVGSAVGGGTCRP; listed as Homo sapiens)
MIC (μg/mL) K. pneumonia, µg/mL: 12.5

Substance: PRT194 (CRSKCHGHGVCDSNRHCYCEEGWAPPDCT; listed as Homo sapiens)
MIC (μg/mL) K. pneumonia, µg/mL: 25

Substance: PRT170 (CTHHKPCKNGATCTNTGQGSYTCSCRPGYTGATC; listed as Homo sapiens)
MIC (μg/mL) K. pneumonia, µg/mL: 25

---

Attribute: MIC against E. coli BL21
- Test system: E. coli BL21
- Method Description: MIC against Gram-negative bacteria: E. coli BL21
- Type: cell-based
- Study Conditions: 96-well plate, 5×10^5 CFU/mL, 37° C., 10 h

Substance: PRT586 (CPCPEGPGSQRHFATSCHQDEYSQQIVCHCRAGYTGLRCEACAPGHFGDPSRPGGRCQL; listed as Homo sapiens)
MIC against E. coli BL21 (µg/mL): 50
//
Substance: PRT523 (CSCGRRLCEEMTGQCRCPPRTVRPQCEVCETHSFSFHPMAGCEG; listed as Homo sapiens)
MIC against E. coli BL21 (µg/mL): 25
//
Substance: PRT494 (CNCSLVGSTHHRCDVVTGHCQCKSKFGGRACDQCSLGYRDFPDCVP; listed as Homo sapiens)
MIC against E. coli BL21 (µg/mL): 25
//
Substance: PRT479 (AAMACSHQRCHGHGRCARRDPGQMEAFLHLWPDGSLGDWKSFSCHCYWGWAGPTCQ; listed as Homo sapiens)
MIC against E. coli BL21 (µg/mL): 50
//
Substance: PRT558 (CTCDPRGALDQLCGAGGLCRCRPGYTGTACQECSPGFHGFPSCVP; listed as Homo sapiens)
MIC against E. coli BL21 (µg/mL): 25
//
Substance: PRT496 (CSCNNHSDTCDPNTGKCLNCGDNTAGDHCDVCTSGYYGKVTGSASDCAL; listed as Homo sapiens)
MIC against E. coli BL21 (µg/mL): 12.5
//
Substance: PRT495 (CDCDLRGTSGDACNLEQGLCGCVEETGACPCKENVFGPQCNECREGTFALRADNPLGCSP; listed as Homo sapiens)
MIC against E. coli BL21 (µg/mL): 50

---

MIC (μg/mL) P. mirabilis values, listed per item
- Tested on: Proteus mirabilis
- Method Description: MIC against Gram-negative bacteria: Proteus mirabilis
- Assay type: cell-based
- Study Conditions: Proteus mirabilis; 96-well plate, 5×10^5 CFU/mL, 37° C., 10 h

Substance: PRT73 (TNGQCQCKENYYKLLAQDTCLPCDCFPHGSHSRTCD; listed as Homo sapiens)
Unit String: µg/mL
MIC (μg/mL) P. mirabilis: 12.5

Substance: PRT125 (CTGHCAHPRLPCFHGGRCVERYSYYTCDCDLTAFDGPYCN; listed as Homo sapiens)
Unit String: µg/mL
MIC (μg/mL) P. mirabilis: 25

Substance: PRT114 (PKYGCNFNNGGCHQDCFEGGDGSFLCGCRPGFRLLDDLVTCA; listed as Homo sapiens)
Unit String: µg/mL
MIC (μg/mL) P. mirabilis: 12.5

Substance: PRT64 (PCSSSPCRGGATCALGPHGKNYTCRCPQGYQLDSSQLDCV; listed as Homo sapiens)
Unit String: µg/mL
MIC (μg/mL) P. mirabilis: 25

Substance: PRT88 (HRMDQQCPRGWWGSPTCGPCNCDVHKGFDPNCN; listed as Homo sapiens)
Unit String: µg/mL
MIC (μg/mL) P. mirabilis: 50

Substance: PRT43 (CKCNGHASLCNTNTGKCFCTTKGVKGDECQLCEVENRYQGNPLRGTCYY; listed as Homo sapiens)
Unit String: µg/mL
MIC (μg/mL) P. mirabilis: 12.5

Substance: PRT61 (KDECSKDNGGCQQDCVNTFGSYECQCRSGFVLHDNKHDCK; listed as Homo sapiens)
Unit String: µg/mL
MIC (μg/mL) P. mirabilis: 25

Substance: PRT94 (DVNECNAHPCFPRVRCINTSPGFRCEACPPGYSGPTHQGVGLAFAKANKQVCT; listed as Homo sapiens)
Unit String: µg/mL
MIC (μg/mL) P. mirabilis: 12.5

Substance: PRT68 (RSGRCANGVCKNGGTCVNLLIGGFHCVCPPGEYERPYCE; listed as Homo sapiens)
Unit String: µg/mL
MIC (μg/mL) P. mirabilis: 12.5

Substance: PRT3 (DGDQCESNPCLNGGSCKDDINSYECWCPFGFEGKNCE; listed as Homo sapiens)
Unit String: µg/mL
MIC (μg/mL) P. mirabilis: 12.5

Substance: PRT37 (IGVDCSDGFNGGCEQLCLQQMAPFPDDPTLYNILMFCGCIEDYKLGVDGRSCQ; listed as Homo sapiens)
Unit String: µg/mL
MIC (μg/mL) P. mirabilis: 12.5

Substance: PRT18 (CQCNPHGSYGGTCDPATGQCSCRPGVGGLRCDRCEPGFWNFRGIVTDGRSGCTP; listed as Homo sapiens)
Unit String: µg/mL
MIC (μg/mL) P. mirabilis: 25

Substance: PRT45 (SINSCPNNCSGHGKCTTSVSVPSQVYCECDKYWKGEACD; listed as Homo sapiens)
Unit String: µg/mL
MIC (μg/mL) P. mirabilis: 50

Substance: PRT62 (ASGDCVPSPCHNGGTCLEEEEGVRCLCLPGYGGDLCD; listed as Homo sapiens)
Unit String: µg/mL
MIC (μg/mL) P. mirabilis: 12.5

Substance: PRT103 (CSSYGKLCRNGGKCRERPIGFFCDCTFSAYTGPFC; listed as Homo sapiens)
Unit String: µg/mL
MIC (μg/mL) P. mirabilis: 25

Substance: PRT128 (CLPSYCEHGGECSQSWDTFSCDCLGTGYTGETC; listed as Homo sapiens)
Unit String: µg/mL
MIC (μg/mL) P. mirabilis: 12.5
